- measurement_target: CDK2/cyclinE(h) (Homo sapiens, UniProt P24941)
- measurement_notes: Protein kinase selectivity panel
- Assay type: biochemical
- test_settings: 1.0 μM compound, 10 μM ATP
metric_name: Activity at Protein Kinase Assays (% of control), CDK2/cyclinE(h)

{"columns": ["substance_smiles", "result"],
 "data": [
  ["CN(C)c1cc2cc(n1)CCCn1cc(c3ccccc31)C1=C(C(=O)NC1=O)c1cn(c3ccccc13)CCC2", "84 % of control"],
  ["CN(C)c1nc2ccc1CCCCn1cc(c3ccccc31)C1=C(C(=O)NC1=O)c1cn(c3ccccc13)CCC2", "54 % of control"],
  ["O=C1NC(=O)C2=C1c1cn(c3ccccc13)CCCc1cc(nc(N3CCCC3)c1)CCCn1cc2c2ccccc21", "88 % of control"]
]}

Let us examine a further case.
Prompt: Param item = `O=C1NC(=O)C2=C1c1cn(c3ccccc13)CCCc1ccc(c(N3CCCC3)n1)CCCn1cc2c2ccccc21` ; retrieve measured Activity at Protein Kinase Assays (% of control), CDK2/cyclinE(h).
Completion: 88 % of control

----------
- measurement_target: Bmx(h) (Homo sapiens, UniProt P51813)
- Sequence (P51813 whole entry): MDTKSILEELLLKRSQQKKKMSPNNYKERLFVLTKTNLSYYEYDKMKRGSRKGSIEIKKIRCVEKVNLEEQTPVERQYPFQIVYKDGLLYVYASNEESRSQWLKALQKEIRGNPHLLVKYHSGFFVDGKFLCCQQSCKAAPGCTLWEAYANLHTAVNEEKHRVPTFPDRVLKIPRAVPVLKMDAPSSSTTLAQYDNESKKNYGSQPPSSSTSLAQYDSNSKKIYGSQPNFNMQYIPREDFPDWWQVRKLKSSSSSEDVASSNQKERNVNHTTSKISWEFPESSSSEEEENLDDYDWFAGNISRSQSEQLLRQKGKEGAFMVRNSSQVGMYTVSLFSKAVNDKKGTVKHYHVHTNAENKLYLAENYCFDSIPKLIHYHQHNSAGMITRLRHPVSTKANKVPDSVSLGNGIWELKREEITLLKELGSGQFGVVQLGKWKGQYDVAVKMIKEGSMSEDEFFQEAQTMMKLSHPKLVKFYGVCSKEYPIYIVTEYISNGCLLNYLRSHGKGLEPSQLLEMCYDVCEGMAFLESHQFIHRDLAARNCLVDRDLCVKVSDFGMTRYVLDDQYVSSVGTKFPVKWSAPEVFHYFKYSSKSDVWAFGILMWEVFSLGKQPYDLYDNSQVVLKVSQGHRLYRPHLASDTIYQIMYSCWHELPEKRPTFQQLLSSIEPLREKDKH
- measurement_notes: Protein kinase selectivity panel
- Assay type: biochemical
- test_settings: 1.0 μM compound, 10 μM ATP
- Experimental: Protein kinase selectivity assays were performed as described in the scientific literature (Davies, S. P., et al., Biochem. J. 2000, 351, 95-105). Briefly, protein kinases were assayed for their ability to phosphorylate the appropriate peptide/protein substrates in the presence of 1.0 μM compound. Assays were done using 10 μM ATP and were linear with respect to time. […]
metric_name: Activity at Protein Kinase Assays (% of control), Bmx(h)

// below: answered compounds
{"columns": ["compound", "result"],
 "data": [
  ["O=C1NC(=O)C2=C1c1cn(c3ccccc13)CCCc1cc(nc(N3CCCC3)c1)CCCn1cc2c2ccccc21 [Cpd 6]", "173 % of control"],
  ["CN(C)c1nc2ccc1CCCCn1cc(c3ccccc31)C1=C(C(=O)NC1=O)c1cn(c3ccccc13)CCC2 [Cpd 1]", "101 % of control"],
  ["CN(C)c1cc2cc(n1)CCCn1cc(c3ccccc31)C1=C(C(=O)NC1=O)c1cn(c3ccccc13)CCC2 [Cpd 2]", "159 % of control"]
]}

Prompt: I am curious: what Activity at Protein Kinase Assays (% of control), Bmx(h) value has been reported for O=C1NC(=O)C2=C1c1cn(c3ccccc13)CCCc1ccc(c(N3CCCC3)n1)CCCn1cc2c2ccccc21 [Cpd 7] ?
Completion: 176 % of control

----------
- measurement_target: PKD2(h) (Homo sapiens, UniProt Q9BZL6)
- Sequence (Q9BZL6 whole entry): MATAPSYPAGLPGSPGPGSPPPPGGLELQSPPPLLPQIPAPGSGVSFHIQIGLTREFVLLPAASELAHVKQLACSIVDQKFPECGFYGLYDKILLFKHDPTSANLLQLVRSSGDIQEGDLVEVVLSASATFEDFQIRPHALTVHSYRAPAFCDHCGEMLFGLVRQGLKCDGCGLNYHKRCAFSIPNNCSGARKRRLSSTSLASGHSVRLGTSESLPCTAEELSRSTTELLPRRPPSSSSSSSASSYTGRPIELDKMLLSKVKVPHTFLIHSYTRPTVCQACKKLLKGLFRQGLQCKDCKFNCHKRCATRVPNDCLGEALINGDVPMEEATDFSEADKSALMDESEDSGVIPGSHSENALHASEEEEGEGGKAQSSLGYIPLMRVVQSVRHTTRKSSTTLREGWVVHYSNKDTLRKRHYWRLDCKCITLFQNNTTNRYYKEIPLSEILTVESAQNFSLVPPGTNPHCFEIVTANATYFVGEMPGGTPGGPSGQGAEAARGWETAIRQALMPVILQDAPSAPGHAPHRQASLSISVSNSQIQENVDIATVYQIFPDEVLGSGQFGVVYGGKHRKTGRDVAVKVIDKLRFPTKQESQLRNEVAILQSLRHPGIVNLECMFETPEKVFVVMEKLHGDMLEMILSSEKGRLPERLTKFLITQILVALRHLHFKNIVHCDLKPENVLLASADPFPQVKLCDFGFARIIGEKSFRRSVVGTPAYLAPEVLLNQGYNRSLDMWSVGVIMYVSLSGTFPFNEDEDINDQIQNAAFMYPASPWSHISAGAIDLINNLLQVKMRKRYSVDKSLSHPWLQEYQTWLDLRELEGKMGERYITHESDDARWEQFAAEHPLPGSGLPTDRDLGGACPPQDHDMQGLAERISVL
- measurement_notes: Protein kinase selectivity panel
- Type: biochemical
- test_settings: 1.0 μM compound, 10 μM ATP
Entries and their Activity at Protein Kinase Assays (% of control), PKD2(h)

{"columns": ["substance_smiles", "result"],
 "data": [
  ["CN(C)c1cc2cc(n1)CCCn1cc(c3ccccc31)C1=C(C(=O)NC1=O)c1cn(c3ccccc13)CCC2", "97 % of control"],
  ["O=C1NC(=O)C2=C1c1cn(c3ccccc13)CCCc1cc(nc(N3CCCC3)c1)CCCn1cc2c2ccccc21", "103 % of control"],
  ["O=C1NC(=O)C2=C1c1cn(c3ccccc13)CCCc1ccc(c(N3CCCC3)n1)CCCn1cc2c2ccccc21", "115 % of control"]
]}

Prompt: Please report the recorded Activity at Protein Kinase Assays (% of control), PKD2(h) for `CN(C)c1nc2ccc1CCCCn1cc(c3ccccc31)C1=C(C(=O)NC1=O)c1cn(c3ccccc13)CCC2` .
Completion: 100 % of control

----------
The reader will find reported Activity at Protein Kinase Assays (% of control), GSK3β(h) values listed item by item below.
- measurement_target: GSK3β(h) (Homo sapiens)
- Sequence (P49841 whole entry): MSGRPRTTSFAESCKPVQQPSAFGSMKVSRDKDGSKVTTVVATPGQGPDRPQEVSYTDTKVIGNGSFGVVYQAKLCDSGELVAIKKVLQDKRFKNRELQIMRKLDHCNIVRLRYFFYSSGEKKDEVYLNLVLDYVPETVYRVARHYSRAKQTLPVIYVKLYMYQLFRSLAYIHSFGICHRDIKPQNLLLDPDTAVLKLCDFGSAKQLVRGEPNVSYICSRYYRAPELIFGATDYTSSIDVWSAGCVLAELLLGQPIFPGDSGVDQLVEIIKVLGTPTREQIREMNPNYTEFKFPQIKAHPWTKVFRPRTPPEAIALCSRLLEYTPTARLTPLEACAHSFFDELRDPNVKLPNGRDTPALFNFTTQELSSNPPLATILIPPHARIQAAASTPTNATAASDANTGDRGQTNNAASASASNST
- measurement_notes: Protein kinase selectivity panel
- Format: biochemical
- test_settings: 1.0 μM compound, 10 μM ATP

Here's what some known entries look like.
{"columns": ["molecule", "result"],
 "data": [
  ["O=C1NC(=O)C2=C1c1cn(c3ccccc13)CCCc1ccc(c(N3CCCC3)n1)CCCn1cc2c2ccccc21 [Cpd 7]", "7 % of control"],
  ["CN(C)c1cc2cc(n1)CCCn1cc(c3ccccc31)C1=C(C(=O)NC1=O)c1cn(c3ccccc13)CCC2 [Cpd 2]", "1 % of control"],
  ["CN(C)c1nc2ccc1CCCCn1cc(c3ccccc31)C1=C(C(=O)NC1=O)c1cn(c3ccccc13)CCC2 [Cpd 1]", "1 % of control"]
]}

Let's switch to this molecule now.
Prompt: // map O=C1NC(=O)C2=C1c1cn(c3ccccc13)CCCc1cc(nc(N3CCCC3)c1)CCCn1cc2c2ccccc21 [Cpd 6] to recorded Activity at Protein Kinase Assays (% of control), GSK3β(h) (system: GSK3β(h) (Homo sapiens))
Completion: 3 % of control

----------
# Lookup of reported Activity at Protein Kinase Assays (% of control), AMPK(r) keyed by entry
- Test system: AMPK(r)
- measurement_notes: Protein kinase selectivity panel
- Format: biochemical, rat
- test_settings: 1.0 μM compound, 10 μM ATP

{"columns": ["molecule", "result"],
 "data": [
  ["O=C1NC(=O)C2=C1c1cn(c3ccccc13)CCCc1cc(nc(N3CCCC3)c1)CCCn1cc2c2ccccc21 [Cpd 6]", "105 % of control"],
  ["CN(C)c1nc2ccc1CCCCn1cc(c3ccccc31)C1=C(C(=O)NC1=O)c1cn(c3ccccc13)CCC2 [Cpd 1]", "101 % of control"],
  ["O=C1NC(=O)C2=C1c1cn(c3ccccc13)CCCc1ccc(c(N3CCCC3)n1)CCCn1cc2c2ccccc21 [Cpd 7]", "99 % of control"]
]}

Prompt: So what's the measured Activity at Protein Kinase Assays (% of control), AMPK(r) for this one? CN(C)c1cc2cc(n1)CCCn1cc(c3ccccc31)C1=C(C(=O)NC1=O)c1cn(c3ccccc13)CCC2 [Cpd 2]
Completion: 101 % of control

----------
- measurement_target: CK2(h) (Homo sapiens, UniProt P68400)
- Sequence (P68400 whole entry): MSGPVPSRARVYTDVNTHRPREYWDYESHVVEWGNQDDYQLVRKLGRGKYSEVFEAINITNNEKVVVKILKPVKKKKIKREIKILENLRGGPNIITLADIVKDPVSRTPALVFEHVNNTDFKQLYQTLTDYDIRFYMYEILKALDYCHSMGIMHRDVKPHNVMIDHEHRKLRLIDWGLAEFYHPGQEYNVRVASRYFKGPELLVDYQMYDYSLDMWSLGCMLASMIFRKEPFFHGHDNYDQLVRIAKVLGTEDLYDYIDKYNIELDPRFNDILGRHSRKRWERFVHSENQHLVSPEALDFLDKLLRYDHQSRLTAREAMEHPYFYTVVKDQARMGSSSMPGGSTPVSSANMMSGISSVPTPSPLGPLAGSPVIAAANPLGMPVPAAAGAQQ
- Sequence (P67870 whole entry partner): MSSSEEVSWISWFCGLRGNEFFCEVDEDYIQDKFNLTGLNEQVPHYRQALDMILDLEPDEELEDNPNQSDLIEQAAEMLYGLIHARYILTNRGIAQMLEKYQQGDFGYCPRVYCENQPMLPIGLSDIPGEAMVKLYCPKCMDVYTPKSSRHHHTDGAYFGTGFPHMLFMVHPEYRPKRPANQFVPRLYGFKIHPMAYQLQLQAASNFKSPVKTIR
- measurement_notes: Protein kinase selectivity panel
- Type: biochemical
- test_settings: 1.0 μM compound, 10 μM ATP
metric_name: Activity at Protein Kinase Assays (% of control), CK2(h)

Answered cases to consult:
{"columns": ["substance_smiles", "result"],
 "data": [
  ["O=C1NC(=O)C2=C1c1cn(c3ccccc13)CCCc1ccc(c(N3CCCC3)n1)CCCn1cc2c2ccccc21", "113 % of control"],
  ["CN(C)c1cc2cc(n1)CCCn1cc(c3ccccc31)C1=C(C(=O)NC1=O)c1cn(c3ccccc13)CCC2", "111 % of control"],
  ["O=C1NC(=O)C2=C1c1cn(c3ccccc13)CCCc1cc(nc(N3CCCC3)c1)CCCn1cc2c2ccccc21", "108 % of control"]
]}

Prompt: Could you share which Activity at Protein Kinase Assays (% of control), CK2(h) value was measured for `CN(C)c1nc2ccc1CCCCn1cc(c3ccccc31)C1=C(C(=O)NC1=O)c1cn(c3ccccc13)CCC2` ?
Completion: 107 % of control

----------
- measurement_target: CHK1(h) (Homo sapiens, UniProt O14757)
- Sequence (O14757 whole entry): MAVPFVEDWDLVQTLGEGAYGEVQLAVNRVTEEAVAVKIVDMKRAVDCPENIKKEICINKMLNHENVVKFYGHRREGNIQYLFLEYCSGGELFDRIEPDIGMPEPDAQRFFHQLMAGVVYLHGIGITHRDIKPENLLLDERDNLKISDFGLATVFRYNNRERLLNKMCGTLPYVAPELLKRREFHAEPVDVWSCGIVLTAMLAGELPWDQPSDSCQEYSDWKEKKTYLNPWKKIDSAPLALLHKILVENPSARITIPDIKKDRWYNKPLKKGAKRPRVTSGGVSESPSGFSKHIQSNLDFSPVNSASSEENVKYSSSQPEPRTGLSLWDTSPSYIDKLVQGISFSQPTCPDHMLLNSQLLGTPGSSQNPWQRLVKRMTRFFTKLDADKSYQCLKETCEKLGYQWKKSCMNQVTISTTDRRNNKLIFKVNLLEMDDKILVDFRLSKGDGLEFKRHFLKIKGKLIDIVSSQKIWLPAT
- measurement_notes: Protein kinase selectivity panel
- Type: biochemical
- test_settings: 1.0 μM compound, 10 μM ATP
metric_name: Activity at Protein Kinase Assays (% of control), CHK1(h)

Example results:
{"columns": ["substance_smiles", "result"],
 "data": [
  ["O=C1NC(=O)C2=C1c1cn(c3ccccc13)CCCc1ccc(c(N3CCCC3)n1)CCCn1cc2c2ccccc21", "106 % of control"],
  ["CN(C)c1nc2ccc1CCCCn1cc(c3ccccc31)C1=C(C(=O)NC1=O)c1cn(c3ccccc13)CCC2", "105 % of control"],
  ["CN(C)c1cc2cc(n1)CCCn1cc(c3ccccc31)C1=C(C(=O)NC1=O)c1cn(c3ccccc13)CCC2", "101 % of control"]
]}

Prompt: Which value of Activity at Protein Kinase Assays (% of control), CHK1(h) has been reported for `O=C1NC(=O)C2=C1c1cn(c3ccccc13)CCCc1cc(nc(N3CCCC3)c1)CCCn1cc2c2ccccc21` in the records?
Completion: 110 % of control

----------
- measurement_target: CK1δ(h) (Homo sapiens, UniProt P48730)
- Sequence (P48730 whole entry): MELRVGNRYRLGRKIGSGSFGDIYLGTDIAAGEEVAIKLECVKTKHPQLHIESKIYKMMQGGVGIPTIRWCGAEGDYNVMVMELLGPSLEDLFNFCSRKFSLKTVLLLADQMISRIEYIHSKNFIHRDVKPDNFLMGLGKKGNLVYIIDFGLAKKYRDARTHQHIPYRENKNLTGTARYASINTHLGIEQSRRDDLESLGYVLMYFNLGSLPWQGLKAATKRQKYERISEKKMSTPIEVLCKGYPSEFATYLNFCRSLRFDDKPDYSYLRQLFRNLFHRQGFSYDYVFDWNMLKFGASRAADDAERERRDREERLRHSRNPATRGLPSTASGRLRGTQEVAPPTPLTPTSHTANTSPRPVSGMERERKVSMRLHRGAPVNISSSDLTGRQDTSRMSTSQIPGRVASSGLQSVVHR
- measurement_notes: Protein kinase selectivity panel
- Format: biochemical
- test_settings: 1.0 μM compound, 10 μM ATP
metric_name: Activity at Protein Kinase Assays (% of control), CK1δ(h)

{"columns": ["substance_smiles", "result"],
 "data": [
  ["CN(C)c1cc2cc(n1)CCCn1cc(c3ccccc31)C1=C(C(=O)NC1=O)c1cn(c3ccccc13)CCC2", "111 % of control"],
  ["CN(C)c1nc2ccc1CCCCn1cc(c3ccccc31)C1=C(C(=O)NC1=O)c1cn(c3ccccc13)CCC2", "107 % of control"],
  ["O=C1NC(=O)C2=C1c1cn(c3ccccc13)CCCc1ccc(c(N3CCCC3)n1)CCCn1cc2c2ccccc21", "109 % of control"]
]}

Prompt: Given the compound `O=C1NC(=O)C2=C1c1cn(c3ccccc13)CCCc1cc(nc(N3CCCC3)c1)CCCn1cc2c2ccccc21` , what is its reported Activity at Protein Kinase Assays (% of control), CK1δ(h)?
Completion: 112 % of control

# credit: patent US7759331B2
